Assay: CCTE_Shafer_MEA_dev_mutual_information_norm: CCTE's Neural Network Formation Assay for Mutual Information Normalization, Shafer Lab (AID 2284091)
Activity calls are given as the source filed them. Rule for the calls: active = hit-call score of the fitted dose curve at least 0.9, where 1 is the maximum; inactive = score below 0.9.
Thanks in advance; please answer with one of these: 1 (yes) for active, 0 (no) for inactive

- MOLECULE: "CCOP(=O)(OCC)SCSC(C)(C)C"
  ANSWER_LABEL: "0 (no)"
- MOLECULE: "Brc1ccc(Oc2cc(Br)c(Br)cc2Br)c(Br)c1"
  ANSWER_LABEL: "0 (no)"
- MOLECULE: "c1ccc2cc3c(cc2c1)-c1cccc2cccc-3c12"
  ANSWER_LABEL: "0 (no)"
- MOLECULE: "CN1C(=O)CN=C(c2ccccc2)c2cc(Cl)ccc21"
  ANSWER_LABEL: "0 (no)"
- MOLECULE: "[CH3][Sn]([CH3])[CH3]"
  ANSWER_LABEL: "1 (yes)"
- MOLECULE: "CCOP(=O)(O)OCC (tested in a mixture with another compound)"
  ANSWER_LABEL: "0 (no)"
- MOLECULE: "CCOP(=O)(OCC)SCSCC"
  ANSWER_LABEL: "0 (no)"

In the following, a different molecule is considered.
Q: Hello, I am checking results. What call was entered for CC1(C)[C@H](C=C(Cl)Cl)[C@@H]1C(=O)O[C@@H](C#N)c1cccc(Oc2ccccc2)c1 ?
Ans: 1 (yes)
